Where these numbers come from: the Human Domainome abundance scans (Beltran et al. 2025)

Listed here are variants together with their documented abundance fitness.
B1: Membrane-associated guanylate kinase, WW and PDZ domain-containing protein 2, residues 601 to 682; numbered along this chain, Q86UL8 (parent)
chain: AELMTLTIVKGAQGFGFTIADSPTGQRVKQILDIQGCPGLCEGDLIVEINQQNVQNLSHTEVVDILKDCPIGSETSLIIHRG

Variants of: B1
protocol_notes: abundance fitness (aPCA) (normalised: wild type 0, dead -1); higher = more abundant; growth selection in yeast, the domain comes from the species named
experimental_conditions: Homo sapiens
readout_name: abundance fitness

variant_id	readout_name	experimental_result
Q55G	abundance fitness	0.073
Q55W	abundance fitness	-0.133
Q52I	abundance fitness	0.038
D21F	abundance fitness	-0.208
H80R	abundance fitness	0.027
C37I	abundance fitness	-0.173
L45S	abundance fitness	0.256
T24P	abundance fitness	-0.017
C41R	abundance fitness	-0.022
C69Y	abundance fitness	-0.174
T24H	abundance fitness	0.02
I78S	abundance fitness	0.019
H59E	abundance fitness	0.126
H80L	abundance fitness	-0.135
G25Y	abundance fitness	-0.177
G72M	abundance fitness	0.059
D44T	abundance fitness	-0.95
H59Q	abundance fitness	-0.014
I34S	abundance fitness	-0.017
T60R	abundance fitness	-0.038
E42L	abundance fitness	-0.028
L57V	abundance fitness	-0.029
G72R	abundance fitness	0.006
K67F	abundance fitness	-0.062
P38L	abundance fitness	0.037
V62R	abundance fitness	-0.91
E48D	abundance fitness	-0.444
G25S	abundance fitness	-0.185
S22A	abundance fitness	0.075
L40M	abundance fitness	-0.254
E48A	abundance fitness	-0.193
I34M	abundance fitness	-0.061
I31G	abundance fitness	-0.11
V28L	abundance fitness	-0.215
N56W	abundance fitness	0.197
L32T	abundance fitness	-0.023
E61F	abundance fitness	-0.381
I19H	abundance fitness	0.134
G39L	abundance fitness	-0.22
L66F	abundance fitness	0.053
C69D	abundance fitness	-0.27
H80N	abundance fitness	0.124
I79M	abundance fitness	-0.005
F17T	abundance fitness	-1.2
S76D	abundance fitness	-0.124
D68Y	abundance fitness	0.011
